Assay: Compound plasma concentration, LC-MS/MS, 8 h post dose
Type: in vivo
Conditions: male, C57BL/6, mouse, mice, 30 mg/kg, plasma, read-out: Mean Example Plasma Concentration
Measured Quantity: concentration at 8 h (ng/mL)

1. O=C(N1CCN(C2CC2)c2ccccc21)C1(NCc2cc(Cl)c(O)cc2Cl)CC1 | 2.2
2. O=C(CCCCc1cc(Cl)c(CNC2(C(=O)N3CCN(C4CC4)c4ccccc43)CC2)cc1Cl)NC[C@H](O)[C@@H](O)[C@H](O)[C@H](O)CO | 0.7

I = CN(C[C@H](O)[C@@H](O)[C@H](O)[C@H](O)CO)C(=O)CC[C@H](NC(=O)CCCCc1cc(Cl)c(CN2CSC[C@H]2C(=O)N2CCN(C3CC3)c3ccccc32)cc1Cl)C(=O)O
II = O=C(CCCCc1cc(Cl)c(CN2CSC[C@H]2C(=O)N2CCN(C3CC3)c3ccccc32)cc1Cl)N[C@@H](C(=O)O)[C@@H](O)[C@H](O)[C@H](O)CO
Identify the entry with the larger concentration at 8 h. Options: I and II Write down the label of the entry you select. II

---

Experiment: Compound plasma concentration, LC-MS/MS, 8 h post dose
Assay type: in vivo
Conditions: 30 mg/kg, mice below LLOQ / mice in group
Measured Quantity: Number of Mice with Plasma Concentration < LLOQ

Here's what some known entries look like.
1. O=C(NC[C@H](O)[C@@H](O)[C@H](O)[C@H](O)CO)c1ccc(COc2cc(Cl)c(CN3CSC[C@H]3C(=O)N3CCN(C4CC4)c4ccccc43)cc2Cl)cc1 | 8/8
2. O=C(CCCCc1cc(Cl)c(CNC2(C(=O)N3CCN(C4CC4)c4ccccc43)CC2)cc1Cl)NC[C@H](O)[C@@H](O)[C@H](O)[C@H](O)CO | 2/8
3. CN(C(=O)C1(OCc2cc(Cl)c(CCCCC(=O)NC[C@H](O)[C@@H](O)[C@H](O)[C@H](O)CO)cc2Cl)CC1)c1ccccc1OC1CC1 | 6/8
4. O=C(O)CNC(=O)CNC(=O)CNC(=O)CCCCc1cc(Cl)c(CN2CSC[C@H]2C(=O)N2CCN(C3CC3)c3ccccc32)cc1Cl | 8/8

Quick one: give measured Number of Mice with Plasma Concentration < LLOQ for CN(C[C@H](O)[C@@H](O)[C@H](O)[C@H](O)CO)C(=O)NCCCCOc1cc(Cl)c(CN2CSC[C@H]2C(=O)N2CCN(C3CC3)c3ccccc32)cc1Cl 8/8

---

Target: human TGR5 (Homo sapiens)
Construct: expressed in transfected cells
Experiment: Cell-based TGR5 assay, HEK293 cells stably expressing human TGR5, cAMP by HTRF
Details: HEK293 cells stably expressing human TGR5, 30 min at 37 C, 0.05 nM to 10 μM, read-out: pEC50 Human TGR5 (converted)
# maps each entry to its EC50

Here's what some known entries look like.
1. CC(C(=O)N1CCN(C2CC2)c2ccccc21)N(C)Cc1cc(Cl)ccc1Cl (stereo not drawn) | 126 to 1000 nM
2. CN(C[C@H](O)[C@@H](O)[C@H](O)[C@H](O)CO)C(=O)CCc1cc(Cl)c(OCC2(C(=O)N3CCN(C4CC4)c4ccccc43)CC2)cc1Cl | 126 to 1000 nM
3. CN(C[C@H](O)[C@@H](O)[C@H](O)[C@H](O)CO)C(=O)CCc1cc(Cl)c(CN2C[C@@H](F)C[C@H]2C(=O)N2CCN(C3CC3)c3ccccc32)cc1Cl | 1260 to 50100 nM
4. O=C(N1CCN(C2CC2)c2ccccc21)C1(NCc2cc(Cl)ccc2Cl)CC1 | < 100 nM

Quick one: give measured EC50 for O=C(c1cccc(OCc2cc(Cl)ccc2Cl)n1)N1CCN(C2CC2)c2ccccc21 1260 to 50100 nM

Quick one: give measured EC50 for CN(C[C@H](O)[C@@H](O)[C@H](O)[C@H](O)CO)C(=O)c1ccc(COc2cc(Cl)c(CN3CSC[C@H]3C(=O)N3CCN(C4CC4)c4ccccc43)cc2Cl)nc1 126 to 1000 nM

---

Molecular target: human TGR5 (Homo sapiens, UniProt Q8TDU6)
Construct: expressed in transfected cells
Assay: Cell-based TGR5 assay, HEK293 cells stably expressing human TGR5, cAMP by HTRF
Conditions: HEK293 cells stably expressing human TGR5, 30 min at 37 C, 0.05 nM to 10 μM, read-out: pEC50 Human TGR5 (converted)
Measured Quantity: EC50

Here's what some known entries look like.
1) O=C(N1CCN(C2CC2)c2ccccc21)C1(OCc2cc(Cl)ccc2Cl)CNC1 | 0.126 to 1 µM
2) O=C(N1CCN(C2CC2)c2ccccc21)C1(OCc2cc(Cl)ccc2Cl)CC1 | < 0.1 µM
3) O=C(N1CCN(C2CC2)c2ccccc21)C1(NCc2cc(Cl)cc(O)c2Cl)CC1 | 0.126 to 1 µM

Quick one: give measured EC50 for O=C(N1CCN(C2CC2)c2ccccc21)C1(OCc2cc(Cl)cc(OC(F)(F)F)c2)CC1 1.26 to 50.1 µM

---

# maps each entry to its EC50
Target: human TGR5 (Homo sapiens, UniProt Q8TDU6)
Construct: expressed in transfected cells
Sequence (Q8TDU6 1-330): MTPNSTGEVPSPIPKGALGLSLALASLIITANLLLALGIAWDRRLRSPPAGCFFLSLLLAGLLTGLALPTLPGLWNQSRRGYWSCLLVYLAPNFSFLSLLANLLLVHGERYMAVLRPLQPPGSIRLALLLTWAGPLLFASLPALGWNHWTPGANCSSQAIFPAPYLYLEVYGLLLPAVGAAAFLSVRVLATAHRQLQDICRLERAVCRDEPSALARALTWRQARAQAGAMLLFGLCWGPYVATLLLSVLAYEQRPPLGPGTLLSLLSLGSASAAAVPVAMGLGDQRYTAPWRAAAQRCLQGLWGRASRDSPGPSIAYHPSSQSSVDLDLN
Assay: Cell-based TGR5 assay, HEK293 cells stably expressing human TGR5, cAMP by HTRF
Details: HEK293 cells stably expressing human TGR5, 30 min at 37 C, 0.05 nM to 10 μM, read-out: pEC50 Human TGR5 (converted)

Here's what some known entries look like.
1) O=C(NCCCc1cc(Cl)c(OCC2(C(=O)N3CCN(C4CC4)c4ccccc43)CC2)cc1Cl)NC[C@H](O)[C@@H](O)[C@H](O)[C@H](O)CO | 0.126 to 1 µM
2) Cc1ccc(Cl)c(COC2(C(=O)N3CCN(C4CC4)c4ccccc43)CC2)c1F | 1.26 to 50.1 µM

Quote EC50 with test system human TGR5 (Homo sapiens, UniProt Q8TDU6) for CN(C[C@H](O)[C@@H](O)[C@H](O)[C@H](O)CO)C(=O)c1ccc(COc2cc(Cl)c(CN3CSC[C@H]3C(=O)N3CCN(C4CC4)c4ccccc43)cc2Cl)o1 0.126 to 1 µM

Quote EC50 with test system human TGR5 (Homo sapiens, UniProt Q8TDU6) for Cc1nn(C)c(Oc2cc(Cl)ccc2Cl)c1C(=O)N1CCN(C2CC2)c2ccccc21 1.26 to 50.1 µM

Quote EC50 with test system human TGR5 (Homo sapiens, UniProt Q8TDU6) for CCN1CC(OCc2cc(Cl)ccc2Cl)(C(=O)N2CCN(C3CC3)c3ccccc32)C1 0.126 to 1 µM

---

Molecular target: human TGR5 (Homo sapiens, UniProt Q8TDU6)
Construct: expressed in transfected cells
Test: Cell-based TGR5 assay, HEK293 cells stably expressing human TGR5, cAMP by HTRF
Conditions: HEK293 cells stably expressing human TGR5, 30 min at 37 C, 0.05 nM to 10 μM, read-out: pEC50 Human TGR5 (converted)
# maps each entry to its EC50

Here's what some known entries look like.
1) O=C([C@@H]1C2CC2CN1Cc1cc(Cl)ccc1Cl)N1CCN(C2CC2)c2ccccc21 (stereo partly drawn) | 1260 to 50100 nM
2) O=C([C@@H]1CCCN1S(=O)(=O)c1cc(Cl)ccc1Cl)N1CCN(C2CC2)c2ccccc21 | 1260 to 50100 nM
3) O=C(CCc1cc(Cl)c(COC2(C(=O)N3CCN(C4CC4)c4ccccc43)CC2)cc1Cl)NC[C@H](O)[C@@H](O)[C@H](O)[C@H](O)CO | < 100 nM
4) COc1ccccc1N(C)C(=O)C1(NCc2cc(Cl)ccc2Cl)CC1 | < 100 nM
5) O=C(N1CCCc2cccnc21)C1(OCc2cc(Cl)ccc2Cl)CC1 | 126 to 1000 nM
6) O=C([C@@H]1CCCCN1Cc1cc(Cl)ccc1Cl)N1CCCc2ccccc21 | 1260 to 50100 nM

Quick one: give measured EC50 for O=C(c1cccn1Cc1cc(Cl)ccc1Cl)N1CCN(C2CC2)c2ccccc21 126 to 1000 nM

Quick one: give measured EC50 for COc1ccccc1N(C)C(=O)C1(OCc2cc(Cl)ccc2Cl)CC1 < 100 nM

Quick one: give measured EC50 for Cc1ccc(Cl)c(CN2CCC[C@H]2C(=O)N2CCN(C3CC3)c3ccccc32)c1F 1260 to 50100 nM

Quick one: give measured EC50 for O=C(N1CCN(C2CC2)c2ccccc21)C1(OCc2cc(Cl)ccc2Cl)CCCC1 < 100 nM

Quick one: give measured EC50 for O=C(CCc1cc(Cl)c(OCC2(C(=O)N3CCN(C4CC4)c4ccccc43)CC2)cc1Cl)NC[C@H](O)[C@@H](O)[C@H](O)[C@H](O)CO 126 to 1000 nM

Quick one: give measured EC50 for O=C(N1CCN(C2CC2)c2ccccc21)C1(NCc2cc(C3CC3)ccc2Cl)CC1 < 100 nM

Quick one: give measured EC50 for O=C(N1CCN(C2CC2)c2ccccc21)C1(NCc2cc(C(F)(F)F)ccc2Cl)CC1 < 100 nM

Quick one: give measured EC50 for O=C(NC[C@H](O)[C@@H](O)[C@H](O)[C@H](O)CO)c1ccc(CCc2cc(Cl)c(CN3CSC[C@H]3C(=O)N3CCN(C4CC4)c4ccccc43)cc2Cl)cn1 126 to 1000 nM

Quick one: give measured EC50 for O=C(N1CCN(C2CC2)c2ccccc21)C1(NCc2cc(Cl)ccc2C(F)(F)F)CC1 < 100 nM
